# Measured target: ATM (Homo sapiens)
# Construct: detecting phosphorylation of Chk2 in a human non-small cell lung cancer cell line NCI-H460 (ATCC company); host or cells: NCI-H460 human non-small cell lung cancer cells
# Sequence (Q13315 whole entry): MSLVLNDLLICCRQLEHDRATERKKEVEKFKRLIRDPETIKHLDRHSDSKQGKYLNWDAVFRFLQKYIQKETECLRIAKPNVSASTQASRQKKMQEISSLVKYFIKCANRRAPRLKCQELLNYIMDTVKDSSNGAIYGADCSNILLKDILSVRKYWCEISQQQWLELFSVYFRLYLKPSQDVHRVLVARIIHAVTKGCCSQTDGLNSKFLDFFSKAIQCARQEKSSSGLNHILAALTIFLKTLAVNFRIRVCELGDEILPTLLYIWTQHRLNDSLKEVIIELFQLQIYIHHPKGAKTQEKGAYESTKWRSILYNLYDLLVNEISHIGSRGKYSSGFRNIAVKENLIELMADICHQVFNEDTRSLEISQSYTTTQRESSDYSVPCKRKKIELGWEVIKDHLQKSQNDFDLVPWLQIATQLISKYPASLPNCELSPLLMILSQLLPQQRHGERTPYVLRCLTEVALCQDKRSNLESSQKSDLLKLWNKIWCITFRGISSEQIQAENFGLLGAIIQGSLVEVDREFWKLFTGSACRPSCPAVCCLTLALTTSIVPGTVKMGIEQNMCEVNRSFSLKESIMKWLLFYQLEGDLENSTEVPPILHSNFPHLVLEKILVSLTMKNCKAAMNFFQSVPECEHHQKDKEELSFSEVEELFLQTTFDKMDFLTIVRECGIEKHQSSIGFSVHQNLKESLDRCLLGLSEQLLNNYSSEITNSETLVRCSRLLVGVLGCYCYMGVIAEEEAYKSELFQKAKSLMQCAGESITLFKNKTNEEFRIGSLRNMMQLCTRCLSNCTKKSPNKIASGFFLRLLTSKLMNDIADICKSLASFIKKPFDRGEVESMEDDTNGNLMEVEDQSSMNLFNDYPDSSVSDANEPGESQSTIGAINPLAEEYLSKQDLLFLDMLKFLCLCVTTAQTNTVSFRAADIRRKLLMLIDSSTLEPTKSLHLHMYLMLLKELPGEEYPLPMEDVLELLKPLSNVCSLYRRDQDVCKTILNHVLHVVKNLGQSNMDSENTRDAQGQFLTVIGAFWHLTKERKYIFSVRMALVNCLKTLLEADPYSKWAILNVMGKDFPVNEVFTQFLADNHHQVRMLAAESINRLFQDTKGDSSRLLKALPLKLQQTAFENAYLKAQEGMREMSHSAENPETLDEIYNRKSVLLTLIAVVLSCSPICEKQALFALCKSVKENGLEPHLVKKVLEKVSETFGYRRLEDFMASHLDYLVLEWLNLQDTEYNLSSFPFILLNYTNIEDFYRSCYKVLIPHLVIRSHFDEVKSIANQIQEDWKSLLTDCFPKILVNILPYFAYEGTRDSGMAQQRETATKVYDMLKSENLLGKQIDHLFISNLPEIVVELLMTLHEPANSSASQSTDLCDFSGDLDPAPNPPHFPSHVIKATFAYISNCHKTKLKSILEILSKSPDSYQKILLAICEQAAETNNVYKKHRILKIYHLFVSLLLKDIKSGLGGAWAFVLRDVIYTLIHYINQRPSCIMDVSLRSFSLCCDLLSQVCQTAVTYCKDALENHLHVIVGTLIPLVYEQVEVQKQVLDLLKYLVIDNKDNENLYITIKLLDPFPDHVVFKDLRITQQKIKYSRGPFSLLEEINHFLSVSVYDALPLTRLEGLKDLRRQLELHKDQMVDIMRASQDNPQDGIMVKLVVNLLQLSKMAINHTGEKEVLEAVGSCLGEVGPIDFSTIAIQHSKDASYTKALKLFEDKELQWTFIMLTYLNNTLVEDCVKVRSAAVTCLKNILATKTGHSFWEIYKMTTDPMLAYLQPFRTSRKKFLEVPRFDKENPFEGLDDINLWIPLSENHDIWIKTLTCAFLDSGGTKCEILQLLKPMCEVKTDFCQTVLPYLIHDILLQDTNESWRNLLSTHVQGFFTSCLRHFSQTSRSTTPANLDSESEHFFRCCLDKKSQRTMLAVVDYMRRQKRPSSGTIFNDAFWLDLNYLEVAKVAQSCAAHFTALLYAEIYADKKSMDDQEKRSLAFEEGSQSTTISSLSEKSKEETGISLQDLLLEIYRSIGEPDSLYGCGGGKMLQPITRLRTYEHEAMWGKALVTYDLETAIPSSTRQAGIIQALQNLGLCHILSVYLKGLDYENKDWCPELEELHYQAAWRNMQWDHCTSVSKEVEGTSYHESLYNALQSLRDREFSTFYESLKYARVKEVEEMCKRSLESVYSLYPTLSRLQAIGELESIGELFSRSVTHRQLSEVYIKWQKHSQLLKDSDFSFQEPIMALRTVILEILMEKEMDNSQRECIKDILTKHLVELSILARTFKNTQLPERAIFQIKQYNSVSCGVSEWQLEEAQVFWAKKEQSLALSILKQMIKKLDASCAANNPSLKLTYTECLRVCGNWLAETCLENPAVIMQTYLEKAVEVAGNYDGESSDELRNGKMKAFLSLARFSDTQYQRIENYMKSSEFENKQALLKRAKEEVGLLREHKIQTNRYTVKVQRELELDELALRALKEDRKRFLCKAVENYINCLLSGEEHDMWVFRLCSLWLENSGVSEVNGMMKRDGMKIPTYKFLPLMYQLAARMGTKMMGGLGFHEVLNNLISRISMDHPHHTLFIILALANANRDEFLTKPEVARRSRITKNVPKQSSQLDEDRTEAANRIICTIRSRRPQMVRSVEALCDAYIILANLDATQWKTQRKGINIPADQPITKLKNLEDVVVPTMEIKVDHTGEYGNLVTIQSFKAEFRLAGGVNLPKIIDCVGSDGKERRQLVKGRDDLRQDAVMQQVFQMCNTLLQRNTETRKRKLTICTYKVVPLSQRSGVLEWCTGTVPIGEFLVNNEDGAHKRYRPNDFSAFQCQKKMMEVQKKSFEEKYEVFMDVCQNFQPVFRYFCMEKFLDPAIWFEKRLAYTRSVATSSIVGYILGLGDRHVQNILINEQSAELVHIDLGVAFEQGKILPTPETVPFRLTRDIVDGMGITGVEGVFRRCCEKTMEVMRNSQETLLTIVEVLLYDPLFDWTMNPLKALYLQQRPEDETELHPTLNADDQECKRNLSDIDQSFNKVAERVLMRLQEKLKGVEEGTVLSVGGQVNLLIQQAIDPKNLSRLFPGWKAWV
# Method: ATM inhibition test (phosphorylation of Chk2 generated by ionizing radiation, AlphaScreen SureFire)
# Type: cell-based
# Assay context: phosphorylated Chk2 in NCI-H460 cells, ionizing radiation 8Gy, 1 hour after test compound treatment; read-out: ATM inhibitory activity
# Procedure: ATM inhibitory effects of a test compound were measured by detecting phosphorylation of Chk2 in a human non-small cell lung cancer cell line NCI-H460 (ATCC company). The level of phosphorylated Chk2 generated by an ionizing radiation was measured using AlphaScreen SureFire (TGR Biosciences). The cells were seeded by 40000 cells per well in 96-well CellBIND® plates (Corning International Inc.), and incubated at 37° C. overnight in 5% CO2. […]
pIC50: −log10 of the molar value.
Measured quantity: pIC50

Worked set:
# Molecule, Test result
data = [
    ("O=c1cc(N2CCOCC2)cc(-c2cccc3c2Oc2ccc(NC4CCN(Cc5cncc(Cl)c5)CC4)cc2C3)[nH]1", "6.30 to 7.00"),
    ("CCN(CC)CC(Nc1ccc2c(c1)Sc1cccc(-c3cc(N4CCOCC4)cc(=O)[nH]3)c1S2)c1cnc(C)cn1 (stereo not shown)", "6.30 to 7.00"),
    ("CC(CCN1CCOCC1)Nc1ccc2c(c1)Sc1cccc(-c3cc(N4CCOCC4)cc(=O)[nH]3)c1S2 (stereo not shown)", "> 7.00"),
    ("O=c1cc(N2CCOCC2)cc(-c2cccc3c2Oc2ccc(NCc4cncc(-n5ccnc5)c4)cc2C3)[nH]1", "6.30 to 7.00"),
    ("O=c1cc(N2CCOCC2)cc(-c2cccc3c2Sc2ccc(NCc4ccc(Cl)nc4)cc2S3)[nH]1", "> 7.00"),
    ("Cc1nccc(CNc2ccc3c(c2)Cc2cccc(-c4cc(N5CCOCC5)cc(=O)[nH]4)c2O3)n1", "5.70 to 6.30"),
]

For the next question, use this molecule.
What value of measured pIC50 is listed for Cc1cnc(C(CCN(C)C)CNc2ccc3c(c2)Sc2cccc(-c4cc(N5CCOCC5)cc(=O)[nH]4)c2S3)cn1 (stereo not shown) ?
6.30 to 7.00

Origin of values: patent US9586951B2
